Listed next: entries and their corresponding pIC50.
biological target: mTOR (Homo sapiens); construct: endogenous in cells; host or cells: Jurkat cells (ATCC TIB-152, clone E6-1), lysate; test: mTOR kinobeads assay (dot blot detection); type: binding; settings: Table 2, Jurkat cell lysate, read-out: Inhibition values (IC50) mTor
pIC50: −log10 of the molar value.

Worked cases, answers included:
{"columns": ["Compound", "Assay System", "pIC50"],
 "data": [
  ["C[C@H]1COCCN1c1cc(-c2ccncc2F)nc(-c2ccc(NC(=O)NC3CC3)cc2)n1 [Example 24]", "mTOR (Homo sapiens)", "6.00 to 7.00"],
  ["O=C(NCCO)Nc1ccc(-c2ccnc(N3CC4CCC(C3)O4)n2)cc1 [Example 59]", "mTOR (Homo sapiens)", "5.00 to 6.00"],
  ["C[C@H]1COCCN1c1nc(-c2ccc(NC(=O)NCCF)cc2)cc(-c2cc(F)ccc2S(C)(=O)=O)n1 [Example 44]", "mTOR (Homo sapiens)", "6.00 to 7.00"],
  ["C[C@H]1COCCN1c1cc(-c2cncc(F)c2)nc(-c2ccc(NC(=O)NC3CC3)cc2F)n1 [Example 63]", "mTOR (Homo sapiens)", "5.00 to 6.00"],
  ["CCNC(=O)Nc1ccc(-c2ccnc(N3CCOC[C@@H]3C)n2)cc1 [Example 38]", "mTOR (Homo sapiens)", "5.00 to 6.00"]
]}

The recorded pIC50 for C[C@H]1COCCN1c1cc(-c2cncc(F)c2)nc(-c2ccc(NC(=O)NCCF)cc2F)n1 [Example 67] is 5.00 to 6.00

The recorded pIC50 for C[C@H]1COCCN1c1cc(-c2ccc(F)nc2)nc(-c2ccc(NC(=O)NC3CC3)cc2)n1 [Example 21] is 6.00 to 7.00

The recorded pIC50 for CCNC(=O)Nc1ccc(-c2cc(-c3cc(F)ccc3S(C)(=O)=O)nc(N3CCOC[C@@H]3C)n2)cc1 [Example 2] is 6.00 to 7.00

The recorded pIC50 for CCCNC(=O)Nc1ccc(-c2nccc(N3CCOCC3)n2)cc1 [Example 32] is 5.00 to 6.00

The recorded pIC50 for CCNC(=O)Nc1ccc(-c2cc(-c3ccccc3C(N)=O)nc(N3CCOC[C@@H]3C)n2)cc1 [Example 12] is 5.00 to 6.00

###

biological target: kinases (kinome) (Homo sapiens, UniProt P51617); construct: determined in kinobeads assays with mass spectrometry detection of kinases as described previously; endogenous in cells; test: kinobeads assay with mass spectrometry detection of kinases (kinase selectivity profile); details: IRAK1 (TKL), IPI00293652
Sequence (P51617 whole entry): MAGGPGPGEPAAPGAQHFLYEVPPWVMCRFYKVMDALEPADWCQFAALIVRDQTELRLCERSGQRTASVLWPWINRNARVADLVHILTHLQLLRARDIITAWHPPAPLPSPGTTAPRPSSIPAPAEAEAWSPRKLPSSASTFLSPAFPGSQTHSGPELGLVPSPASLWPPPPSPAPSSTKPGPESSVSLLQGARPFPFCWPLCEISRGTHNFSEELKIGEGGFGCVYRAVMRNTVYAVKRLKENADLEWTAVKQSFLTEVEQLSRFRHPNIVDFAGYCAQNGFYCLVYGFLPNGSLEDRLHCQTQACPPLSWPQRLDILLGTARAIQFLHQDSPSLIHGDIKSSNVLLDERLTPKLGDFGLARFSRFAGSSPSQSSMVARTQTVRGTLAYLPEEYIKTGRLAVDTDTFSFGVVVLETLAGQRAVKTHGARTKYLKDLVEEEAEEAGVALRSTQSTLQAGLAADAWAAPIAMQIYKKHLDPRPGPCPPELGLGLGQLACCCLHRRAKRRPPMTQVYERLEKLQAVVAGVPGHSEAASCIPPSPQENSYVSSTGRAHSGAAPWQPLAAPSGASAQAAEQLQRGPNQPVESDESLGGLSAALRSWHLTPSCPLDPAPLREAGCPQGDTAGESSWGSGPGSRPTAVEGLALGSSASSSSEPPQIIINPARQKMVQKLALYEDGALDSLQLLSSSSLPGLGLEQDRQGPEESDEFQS
Readout Kind: IC50

Worked cases, answers included:
{"columns": ["Compound", "IC50"],
 "data": [
  ["C[C@H]1COCCN1c1nc(-c2ccc(NC(=O)N[C@H]3CCC[C@@H]3O)cc2)cc(-c2cc(F)ccc2S(C)(=O)=O)n1 [Example 76]", "> 10 µM"],
  ["C[C@H]1COCCN1c1nc(-c2ccc(NC(=O)NC3CC3)cc2)cc(-c2cc(F)ccc2S(C)(=O)=O)n1 [Example 40]", "> 10 µM"],
  ["C[C@H]1COCCN1c1cc(-c2ccccn2)nc(-c2ccc(NC(=O)NCCO)cc2)n1 [Example 43]", "> 10 µM"],
  ["C[C@H]1COCCN1c1nc(-c2ccc(NC(=O)NC3CC3)cc2)cc(-c2cccnc2S(C)(=O)=O)n1 [Example 46]", "> 10 µM"]
]}

The recorded IC50 for C[C@H]1COCCN1c1nc(-c2ccc(NC(=O)NC3CC3)cc2)cc(-c2ccccc2S(C)(=O)=O)n1 [Example 4] is > 10 µM

###

target: kinases (kinome) (Homo sapiens); construct: determined in kinobeads assays with mass spectrometry detection of kinases as described previously; endogenous in cells; assay: kinobeads assay with mass spectrometry detection of kinases (kinase selectivity profile); conditions: CK1g2 (CK1), IPI00297767
pIC50: −log10 of the molar value.
Readout Kind: pIC50

The recorded pIC50 for C[C@H]1COCCN1c1nc(-c2ccc(NC(=O)NC3CC3)cc2)cc(-c2cccnc2S(C)(=O)=O)n1 is < 5.00

###

target: kinases (kinome) (Homo sapiens); construct: determined in kinobeads assays with mass spectrometry detection of kinases as described previously; endogenous in cells; experiment: kinobeads assay with mass spectrometry detection of kinases (kinase selectivity profile); details: MAP2K1 (STE), IPI00219604
pIC50: −log10 of the molar value.
Listed next: entries and their corresponding pIC50.

The recorded pIC50 for C[C@H]1COCCN1c1cc(-c2ccccn2)nc(-c2ccc(NC(=O)NCCO)cc2)n1 is < 5.00

The recorded pIC50 for C[C@H]1COCCN1c1nc(-c2ccc(NC(=O)NC3CC3)cc2)cc(-c2cccnc2S(C)(=O)=O)n1 is < 5.00

###

Listed next: entries and their corresponding pIC50.
Molecular target: kinases (kinome) (Homo sapiens, UniProt Q13315)
Construct: determined in kinobeads assays with mass spectrometry detection of kinases as described previously; endogenous in cells
Sequence (Q13315 whole entry): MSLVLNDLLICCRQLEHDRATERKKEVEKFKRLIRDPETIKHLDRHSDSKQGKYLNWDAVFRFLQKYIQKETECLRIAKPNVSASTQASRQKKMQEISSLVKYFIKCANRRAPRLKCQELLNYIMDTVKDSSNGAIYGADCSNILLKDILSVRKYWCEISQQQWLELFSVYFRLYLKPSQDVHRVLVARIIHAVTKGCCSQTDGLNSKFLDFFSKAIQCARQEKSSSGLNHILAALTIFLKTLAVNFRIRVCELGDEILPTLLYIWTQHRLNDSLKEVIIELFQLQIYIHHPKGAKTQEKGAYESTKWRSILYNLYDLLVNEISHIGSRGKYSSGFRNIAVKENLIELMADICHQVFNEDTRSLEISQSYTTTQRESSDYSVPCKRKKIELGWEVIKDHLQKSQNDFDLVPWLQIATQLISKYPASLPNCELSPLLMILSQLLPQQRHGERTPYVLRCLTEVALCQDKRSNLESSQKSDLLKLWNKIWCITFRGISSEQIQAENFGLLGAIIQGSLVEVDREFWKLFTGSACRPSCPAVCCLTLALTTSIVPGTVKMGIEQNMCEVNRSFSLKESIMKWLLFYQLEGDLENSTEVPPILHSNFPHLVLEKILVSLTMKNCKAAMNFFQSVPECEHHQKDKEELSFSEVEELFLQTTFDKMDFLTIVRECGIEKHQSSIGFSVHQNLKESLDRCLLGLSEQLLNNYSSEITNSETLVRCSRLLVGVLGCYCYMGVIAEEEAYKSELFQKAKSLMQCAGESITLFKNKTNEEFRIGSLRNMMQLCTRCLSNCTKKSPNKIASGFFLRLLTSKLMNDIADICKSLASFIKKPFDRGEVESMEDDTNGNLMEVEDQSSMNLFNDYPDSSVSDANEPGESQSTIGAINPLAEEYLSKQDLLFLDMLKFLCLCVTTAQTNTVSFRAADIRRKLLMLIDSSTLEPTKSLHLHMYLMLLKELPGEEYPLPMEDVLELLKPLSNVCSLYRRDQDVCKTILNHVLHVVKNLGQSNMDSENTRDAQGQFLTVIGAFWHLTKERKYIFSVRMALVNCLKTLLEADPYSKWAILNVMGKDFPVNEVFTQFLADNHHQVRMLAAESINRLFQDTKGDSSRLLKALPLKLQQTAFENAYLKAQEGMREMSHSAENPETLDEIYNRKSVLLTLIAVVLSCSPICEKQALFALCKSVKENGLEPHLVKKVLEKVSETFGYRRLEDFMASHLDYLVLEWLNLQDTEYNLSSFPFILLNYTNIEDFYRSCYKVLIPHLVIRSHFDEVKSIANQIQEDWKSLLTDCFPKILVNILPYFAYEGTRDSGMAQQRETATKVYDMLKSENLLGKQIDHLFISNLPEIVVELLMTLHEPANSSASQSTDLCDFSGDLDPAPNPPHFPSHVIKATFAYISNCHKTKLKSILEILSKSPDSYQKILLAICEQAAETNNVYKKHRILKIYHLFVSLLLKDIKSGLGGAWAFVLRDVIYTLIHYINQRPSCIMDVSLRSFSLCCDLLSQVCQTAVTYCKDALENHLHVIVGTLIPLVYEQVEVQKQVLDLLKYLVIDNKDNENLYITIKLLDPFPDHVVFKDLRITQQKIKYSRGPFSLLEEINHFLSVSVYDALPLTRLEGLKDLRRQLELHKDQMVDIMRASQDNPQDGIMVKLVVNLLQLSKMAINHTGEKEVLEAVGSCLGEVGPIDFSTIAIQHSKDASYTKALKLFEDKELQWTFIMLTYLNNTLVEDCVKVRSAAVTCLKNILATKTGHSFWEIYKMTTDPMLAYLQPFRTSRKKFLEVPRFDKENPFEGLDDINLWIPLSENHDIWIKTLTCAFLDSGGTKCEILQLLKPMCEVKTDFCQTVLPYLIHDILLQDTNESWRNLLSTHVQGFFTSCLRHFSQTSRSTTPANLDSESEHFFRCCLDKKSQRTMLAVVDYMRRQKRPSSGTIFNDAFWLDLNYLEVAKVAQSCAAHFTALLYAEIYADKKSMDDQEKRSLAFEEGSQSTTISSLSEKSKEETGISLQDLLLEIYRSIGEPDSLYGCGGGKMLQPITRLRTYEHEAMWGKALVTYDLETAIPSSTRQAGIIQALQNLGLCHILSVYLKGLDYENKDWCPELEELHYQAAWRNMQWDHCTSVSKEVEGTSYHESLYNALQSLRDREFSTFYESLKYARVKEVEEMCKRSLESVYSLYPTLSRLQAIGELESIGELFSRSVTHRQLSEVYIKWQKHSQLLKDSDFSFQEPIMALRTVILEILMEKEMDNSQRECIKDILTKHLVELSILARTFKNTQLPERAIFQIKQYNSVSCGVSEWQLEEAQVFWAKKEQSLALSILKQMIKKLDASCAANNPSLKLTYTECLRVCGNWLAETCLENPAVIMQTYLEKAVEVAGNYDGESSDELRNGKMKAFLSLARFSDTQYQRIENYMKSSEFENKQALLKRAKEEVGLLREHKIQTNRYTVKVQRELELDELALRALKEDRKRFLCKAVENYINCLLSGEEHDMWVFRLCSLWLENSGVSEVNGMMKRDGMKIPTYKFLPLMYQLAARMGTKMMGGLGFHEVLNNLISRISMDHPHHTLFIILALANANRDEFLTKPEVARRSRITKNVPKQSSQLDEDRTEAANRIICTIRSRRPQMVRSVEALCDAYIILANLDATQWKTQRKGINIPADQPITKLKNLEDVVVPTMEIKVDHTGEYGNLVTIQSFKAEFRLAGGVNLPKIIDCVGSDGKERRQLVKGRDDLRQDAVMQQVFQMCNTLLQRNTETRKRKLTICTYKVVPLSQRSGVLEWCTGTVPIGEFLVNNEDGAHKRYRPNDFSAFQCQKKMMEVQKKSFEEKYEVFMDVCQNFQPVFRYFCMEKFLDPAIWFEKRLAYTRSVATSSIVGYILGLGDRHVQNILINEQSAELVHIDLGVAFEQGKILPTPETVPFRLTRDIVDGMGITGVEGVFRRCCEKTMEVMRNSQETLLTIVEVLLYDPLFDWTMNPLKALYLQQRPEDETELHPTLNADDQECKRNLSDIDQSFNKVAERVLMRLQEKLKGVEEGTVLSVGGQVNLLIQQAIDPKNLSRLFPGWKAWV
Assay: kinobeads assay with mass spectrometry detection of kinases (kinase selectivity profile)
Conditions: ATM (Atypical), IPI00298306
Text: The protein kinase complement of the human genome (the kinome) was described previously (Manning et al., 2002. Science 298(5600):1912-1934). Sequence accession numbers are defined by the International Protein Index (IPI) (Kersey et al., 2004. Proteomics 4(7):1985-1988).
pIC50: −log10 of the molar value.

Worked cases, answers included:
{"columns": ["Compound", "Endpoint Value"],
 "data": [
  ["C[C@H]1COCCN1c1cc(-c2ccccc2S(C)(=O)=O)nc(-c2ccc(NC(=O)NC3CC3)cc2)n1 [Example 6]", "< 5.00"],
  ["C[C@H]1COCCN1c1nc(-c2ccc(NC(=O)NC3CC3)cc2)cc(-c2cccnc2S(C)(=O)=O)n1 [Example 46]", "< 5.00"]
]}

Consider the record given below.
The recorded pIC50 for C[C@H]1COCCN1c1nc(-c2ccc(NC(=O)NC3CC3)cc2)cc(-c2ccccc2S(C)(=O)=O)n1 [Example 4] is < 5.00

###

target: kinases (kinome) (Homo sapiens, UniProt O15197); construct: determined in kinobeads assays with mass spectrometry detection of kinases as described previously; endogenous in cells; experiment: kinobeads assay with mass spectrometry detection of kinases (kinase selectivity profile); conditions: EphB6 (TK), IPI00005222
Readout Kind: IC50

Worked cases, answers included:
{"columns": ["Entry Smiles", "Endpoint Value"],
 "data": [
  ["C[C@H]1COCCN1c1cc(-c2ccccc2S(C)(=O)=O)nc(-c2ccc(NC(=O)NC3CC3)cc2)n1", "> 10 µM"],
  ["C[C@H]1COCCN1c1nc(-c2ccc(NC(=O)NC3CC3)cc2)cc(-c2ccccc2S(C)(=O)=O)n1", "> 10 µM"],
  ["C[C@H]1COCCN1c1nc(-c2ccc(NC(=O)NC3CC3)cc2)cc(-c2cc(F)ccc2S(C)(=O)=O)n1", "> 10 µM"]
]}

Consider the record given below.
Field IC50 (kinases (kinome) (Homo sapiens, UniProt O15197)), entry C[C@H]1COCCN1c1nc(-c2ccc(NC(=O)NC3CC3)cc2)cc(-c2cccnc2S(C)(=O)=O)n1 : > 10 µM

###

Listed next: entries and their corresponding pIC50.
target: kinases (kinome) (Homo sapiens, UniProt Q8TCG2); construct: determined in kinobeads assays with mass spectrometry detection of kinases as described previously; endogenous in cells; assay: kinobeads assay with mass spectrometry detection of kinases (kinase selectivity profile); settings: PIK4C2B (Lipid Kinase), IPI00291068
Sequence (Q8TCG2 whole entry): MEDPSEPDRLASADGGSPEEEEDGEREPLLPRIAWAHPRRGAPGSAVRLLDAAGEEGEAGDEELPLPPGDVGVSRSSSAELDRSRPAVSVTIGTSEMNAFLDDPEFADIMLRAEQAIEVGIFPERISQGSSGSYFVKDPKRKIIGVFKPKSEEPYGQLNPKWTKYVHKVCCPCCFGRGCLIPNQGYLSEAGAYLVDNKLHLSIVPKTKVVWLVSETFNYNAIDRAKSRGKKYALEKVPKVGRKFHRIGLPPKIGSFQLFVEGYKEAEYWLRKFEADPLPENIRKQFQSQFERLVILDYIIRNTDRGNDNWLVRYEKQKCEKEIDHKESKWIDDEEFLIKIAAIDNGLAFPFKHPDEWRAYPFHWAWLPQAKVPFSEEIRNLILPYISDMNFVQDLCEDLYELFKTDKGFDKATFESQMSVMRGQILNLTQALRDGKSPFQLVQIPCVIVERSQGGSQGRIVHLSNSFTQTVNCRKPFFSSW
pIC50: −log10 of the molar value.

Worked cases, answers included:
{"columns": ["Compound", "Assay System", "pIC50"],
 "data": [
  ["C[C@H]1COCCN1c1cc(-c2ccccn2)nc(-c2ccc(NC(=O)NCCO)cc2)n1 [Example 43]", "kinases (kinome) (Homo sapiens, UniProt Q8TCG2)", "< 5.00"],
  ["C[C@H]1COCCN1c1nc(-c2ccc(NC(=O)NC3CC3)cc2)cc(-c2cc(F)ccc2S(C)(=O)=O)n1 [Example 40]", "kinases (kinome) (Homo sapiens, UniProt Q8TCG2)", "< 5.00"],
  ["C[C@H]1COCCN1c1cc(-c2ccccc2S(C)(=O)=O)nc(-c2ccc(NC(=O)NC3CC3)cc2)n1 [Example 6]", "kinases (kinome) (Homo sapiens, UniProt Q8TCG2)", "< 5.00"],
  ["C[C@H]1COCCN1c1nc(-c2ccc(NC(=O)NC3CC3)cc2)cc(-c2cccnc2S(C)(=O)=O)n1 [Example 46]", "kinases (kinome) (Homo sapiens, UniProt Q8TCG2)", "< 5.00"],
  ["CCNC(=O)Nc1ccc(-c2cc(-c3ccccc3C#N)nc(N3CCOC[C@@H]3C)n2)cc1 [Example 8]", "kinases (kinome) (Homo sapiens, UniProt Q8TCG2)", "< 5.00"]
]}

Field pIC50 (kinases (kinome) (Homo sapiens, UniProt Q8TCG2)), entry C[C@H]1COCCN1c1nc(-c2ccc(NC(=O)N[C@H]3CCC[C@@H]3O)cc2)cc(-c2cc(F)ccc2S(C)(=O)=O)n1 [Example 76] : < 5.00

Field pIC50 (kinases (kinome) (Homo sapiens, UniProt Q8TCG2)), entry C[C@H]1COCCN1c1nc(-c2ccc(NC(=O)NC3CC3)cc2)cc(-c2ccccc2S(C)(=O)=O)n1 [Example 4] : < 5.00
